# Test system: Botrytis cinerea
# measurement context: Botrytis cinerea, in Solanum lycopersicum, 168 h, read-out: Preventive value
# pest or weed control at 10 ppm listing for each entry below
Quick reminder: number only, in %, skip the unit.

# compound, tgt, readout units, reported value
measured = [
    ("CC(C)(C)C(O)(CCc1ccc(Cl)cc1)Cn1cncn1 (stereo not shown)", "Botrytis cinerea", "%", 33),
    ("CC(C)CC(C)c1sccc1NC(=O)c1cn(C)nc1C(F)(F)F (stereo not shown)", "Botrytis cinerea", "%", 67),
    ("Cc1cc(C2CC2)nc(Nc2ccccc2)n1", "Botrytis cinerea", "%", 73),
]

Query compound follows.
Prompt line: // lookup pest or weed control at 10 ppm for O=C(Nc1ccccc1-c1ccc(Cl)cc1)c1cccnc1Cl
Response line: 67

###

# System: Sphaerotheca fuliginea
# measurement context: Podosphaera fuliginea, in Cucumis sativus, 168 h, read-out: Preventive value
value kind: pest or weed control at 250 ppm (%)
Quick reminder: number only, in %, skip the unit.

Prompt line: // lookup pest or weed control at 250 ppm for Cc1ccc(-c2c(Cl)nc(C#N)n2S(=O)(=O)N(C)C)cc1
Response line: 0

Prompt line: // lookup pest or weed control at 250 ppm for CC(C)OC(=O)N[C@H](C(=O)N[C@H](C)c1nc2ccc(F)cc2s1)C(C)C
Response line: 0

Prompt line: // lookup pest or weed control at 250 ppm for CC(C)NC(=O)N1CC(=O)N(c2cc(Cl)cc(Cl)c2)C1=O
Response line: 33

Prompt line: // lookup pest or weed control at 250 ppm for N#Cc1c[nH]cc1-c1cccc2c1OC(F)(F)O2
Response line: 73

Prompt line: // lookup pest or weed control at 250 ppm for Cc1cc(O)no1
Response line: 0

Prompt line: // lookup pest or weed control at 250 ppm for COCC(=O)N(c1c(C)cccc1C)C(C)C(=O)OC (stereo not shown) [Metalaxyl, metalaxyl]
Response line: 0

Prompt line: // lookup pest or weed control at 250 ppm for O=[N+]([O-])c1cc(C(F)(F)F)c(Cl)c([N+](=O)[O-])c1Nc1ncc(C(F)(F)F)cc1Cl
Response line: 83

###

# System: Phytophthora infestans
# procedure summary: whole plant or invertebrate
# Type: in vivo
# measurement context: Phytophthora infestans, in Solanum lycopersicum, 168 h, read-out: Preventive value
Counter-ions that a name gives are not always drawn.
# pest or weed control at 250 ppm listing for each entry below
Quick reminder: number only, in %, skip the unit.

# compound, pest or weed control at 250 ppm (%)
rows = [
    ("Cc1cc(C2CC2)nc(Nc2ccccc2)n1", 0),
]

Prompt line: // lookup pest or weed control at 250 ppm for Cc1cc(O)no1
Response line: 0

Prompt line: // lookup pest or weed control at 250 ppm for CCCOC(=O)NCCCN(C)C [propamocarb hydrochloride]
Response line: 67

Prompt line: // lookup pest or weed control at 250 ppm for C[Si](C)(C)CC(O)(Cn1cncn1)c1ccc(F)cc1 (centres unmarked)
Response line: 0

Prompt line: // lookup pest or weed control at 250 ppm for COC(=O)NC(=S)Nc1ccccc1NC(=S)NC(=O)OC [thiophanate-methyl]
Response line: 0

###

# Tested on: Pseudoperonospora cubensis
# measurement context: alone, 5000 ppm
value kind: Preventive value
# output: bare number, no unit

# compound, Preventive value
measured = [
    ("O=C(CO)[C@H](O)[C@H](O)[C@H](O)CO [D-Psicose, D-psicose]", 0.0),
]

Prompt line: // lookup Preventive value for O=C[C@@H](O)[C@@H](O)[C@H](O)[C@H](O)CO [D-Mannose, D-mannose]
Response line: 0.0

Prompt line: // lookup Preventive value for O=C(CO)[C@H](O)[C@@H](O)[C@H](O)CO [D-Sorbose, D-sorbose]
Response line: 0.0

Prompt line: // lookup Preventive value for O=C(CO)[C@@H](O)[C@@H](O)[C@H](O)CO [D-Tagatose, D-tagatose]
Response line: 8.3

Prompt line: // lookup Preventive value for O=C(CO)[C@@H](O)[C@H](O)[C@H](O)CO [D-Fuctose, D-fructose]
Response line: 0.0
